# test system: Glucocorticoid receptor (Homo sapiens) (UniProt P04150)
# Sequence (P04150 whole entry, looked up): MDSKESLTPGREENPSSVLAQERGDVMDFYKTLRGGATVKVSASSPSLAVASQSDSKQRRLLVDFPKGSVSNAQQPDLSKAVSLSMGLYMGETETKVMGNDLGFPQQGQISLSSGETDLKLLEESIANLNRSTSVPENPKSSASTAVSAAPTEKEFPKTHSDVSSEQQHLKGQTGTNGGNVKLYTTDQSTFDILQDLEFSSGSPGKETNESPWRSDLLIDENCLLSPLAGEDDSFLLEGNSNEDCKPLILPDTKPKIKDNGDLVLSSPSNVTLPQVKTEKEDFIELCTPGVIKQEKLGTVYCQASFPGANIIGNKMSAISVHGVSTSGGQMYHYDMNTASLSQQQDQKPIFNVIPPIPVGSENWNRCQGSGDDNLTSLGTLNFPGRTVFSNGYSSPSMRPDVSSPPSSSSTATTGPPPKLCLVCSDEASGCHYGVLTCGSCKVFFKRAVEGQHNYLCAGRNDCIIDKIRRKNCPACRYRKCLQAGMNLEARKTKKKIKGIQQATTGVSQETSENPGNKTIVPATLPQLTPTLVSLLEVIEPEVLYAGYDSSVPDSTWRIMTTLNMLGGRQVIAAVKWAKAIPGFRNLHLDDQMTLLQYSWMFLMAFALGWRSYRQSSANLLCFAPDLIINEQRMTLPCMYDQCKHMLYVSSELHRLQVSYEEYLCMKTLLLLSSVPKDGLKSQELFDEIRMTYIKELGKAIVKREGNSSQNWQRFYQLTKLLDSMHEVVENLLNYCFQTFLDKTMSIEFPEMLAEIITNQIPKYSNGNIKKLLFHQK
# experiment: qHTS assay for small molecule agonists of glucocorticoid receptor signaling (AID 588532);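 further: 100% = dexamethasone at 0.1 µM and 0% = DMSO only wells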
# test parameters: HeLa MMTV-bla, beta-lactamase ratio, agonist, 18 h; stronger effect = higher value; percent of dexamethasone control, DMSO zero
Records with an inconclusive call do not appear.
Parameter activation: see the listing below.

molecule	unit abbreviation	activation
C[C@H]1O[C@H](OC2[C@@H](O)[C@@H](O)C(O)[C@H](O)[C@H]2O)[C@@H](N)C[C@@H]1N=C(N)C(=O)O (some centres not stated)	%	-3.89
c1ccc(Nc2cccc3ccccc23)cc1	%	4.55
CCOC(=O)c1ccccc1N	%	0.622
CCCCOP(=O)(O)OCCCC	%	-1.37
CC(C)COC(=O)c1ccccc1C(=O)OCC(C)C	%	-1.08
CCOP(=S)(OCC)SCSCC	%	-1.34
Cc1ccc2cc3c(ccc4ccccc43)c3c2c1CC3	%	4.51

---

# System: Tov112D
# experiment: Primary qHTS to identify gynecologic anti-cancer compounds using libraries of approved drugs and bioactive compounds (AID 1345084); further: nearly all actives have a fitted effect of over 55% in size
# test parameters: Gynecologic cancer cell panel viability, ATPlite luminescence, 48 h; series mostly up to 57.5 µM
Results filed as inconclusive are left out. Calls of active or inactive are those of the source. Calls follow the shape of the dose curve; as a rule, active = well fitted cell-killing curve with a large enough effect; inconclusive = small, poorly fitted or top-dose-only effect, or effect the other way; inactive = flat fitted curve, though single readings scatter.
Classes used: Y for active, N for inactive

compound	classification
C=C[C@H]1CN2CCC1C[C@H]2[C@H](O)c1ccnc2ccccc12 (some centres undefined)	N
COC1CC(O[C@H]2CC[C@@]3(C)C(CCC4C3CC[C@]3(C)C(C5=CC(=O)OC5)CCC43O)C2)OC(C)C1OC1OC(COC2OC(CO)C(O)C(O)C2O)C(O)C(O)C1O (some centres undefined)	Y
C=C1C(=O)CC2OC2(C)CC2OC(=O)C(=C)C2C(O)C1OC(=O)/C(C)=C\C (centres undefined)	N
O=C(C[C@@H]1NCCC[C@H]1O)Cn1cnc2ccccc2c1=O	Y
CC(=O)C1CCC2C3CCC4C[C@@H](O)CCC4(C)C3CCC12C (some centres undefined)	N
CC[C@@]1(O)C(=O)OCc2c1cc1n(c2=O)Cc2cc3c(OC)cccc3nc2-1	Y
CCC1CN2CCc3cc(OC)c(OC)cc3C2CC1CC1=NCCc2cc(O)c(OC)cc21 (centres undefined)	N
C[C@H]1O[C@@H](n2cnc3c(N)ncnc32)C[C@@H]1O	N
CCC1(O)CCC2C3CCC4=CC(=O)CCC4C3CCC21CC (centres undefined)	N

---

# test system: Nucleoprotein (Lymphocytic choriomeningitis virus (strain Armstrong)) (UniProt P09992)
# Sequence (P09992 whole entry, looked up): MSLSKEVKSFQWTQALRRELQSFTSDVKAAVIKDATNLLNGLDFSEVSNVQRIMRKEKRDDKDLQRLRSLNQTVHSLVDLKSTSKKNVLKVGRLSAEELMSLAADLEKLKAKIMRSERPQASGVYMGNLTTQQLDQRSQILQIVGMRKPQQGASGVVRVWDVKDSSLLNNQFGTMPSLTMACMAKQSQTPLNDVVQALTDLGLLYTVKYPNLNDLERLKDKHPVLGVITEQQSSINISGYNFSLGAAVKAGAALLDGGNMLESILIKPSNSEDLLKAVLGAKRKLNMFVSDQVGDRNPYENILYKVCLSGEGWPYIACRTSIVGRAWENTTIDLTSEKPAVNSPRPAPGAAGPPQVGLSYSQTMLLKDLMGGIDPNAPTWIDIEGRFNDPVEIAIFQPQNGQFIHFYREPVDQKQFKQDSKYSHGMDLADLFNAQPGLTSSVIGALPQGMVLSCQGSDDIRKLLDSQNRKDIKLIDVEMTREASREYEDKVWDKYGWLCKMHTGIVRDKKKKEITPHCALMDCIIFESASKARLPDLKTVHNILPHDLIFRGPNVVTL
# experiment: qHTS for Inhibitors of the Functional Ribonucleoprotein Complex (vRNP) of Lymphocytic Choriomeningitis Arenaviruses (LCMV): LCMV Primary Screen - GLuc reporter signal (AID 1347086); further: nearly all actives have a fitted effect of over 70% in size
# test parameters: LCMV minigenome vRNP cell assay, Gaussia luciferase reporter; series mostly up to 57.5 µM
Results filed as inconclusive are left out. Activity calls are given as the source filed them. Calls follow the shape of the full dose curve.
Classes used: YES for active, NO for inactive

compound	classification
CC1(C)[C@H]2CC[C@]3(C)[C@@H](C(=O)C=C4[C@@H]5C[C@@](C)(C(=O)O)CC[C@]5(C)CC[C@]43C)[C@@]2(C)CC[C@@H]1O	NO
Nc1ncnc2c1ncn2[C@@H]1O[C@@H](CO)[C@H](O)[C@H]1O	NO
CN1c2c(nc(N)[nH]c2=O)NCC1CNc1ccc(C(=O)NC(CCC(=O)O)C(=O)O)cc1 (stereo unspecified)	NO
O=C(/C=C/c1ccc(O)cc1)OCc1occc(=O)c1O[C@@H]1OC(CO)[C@@H](O)[C@H](O)[C@@H]1O (stereo partly specified)	NO
COc1cc(C(=O)OC2C[C@H]3CC[C@@H](C2)N3)ccc1O (stereo partly specified)	NO
CN(CCCC(=O)c1cccnc1)N=O	NO
CN(C)CC(C)(C)CNc1nn2c(-c3ccccc3)nnc2cc1C1CCC1	YES
CCOC(=O)c1cc(=O)[nH]c2ccccc12	NO
CC(=O)C1CCC2C3CCC4=CC(=O)C=CC4(C)C3CCC12C (stereo unspecified)	NO
CCCCC(CC)CO (stereo unspecified)	NO
COc1c(C(O)CC(C)C)ccc2c1C(=O)OCc1cc(C)cc(O)c1O2 (stereo unspecified)	NO
CNC(=O)[C@H]1O[C@@H](n2cnc3c(NCc4cccc(I)c4)ncnc32)[C@H](O)[C@@H]1O	NO
CN1C(C(=O)Nc2ccccn2)=C(O)c2sc(Cl)cc2S1(=O)=O	YES
CC(C)C(O)(C(=O)OC[C@@H]1CC[N+]2([O-])CCCC12)C(C)O (stereo partly specified)	NO
COc1cc(CCc2ccccc2)c(C(=O)O)c(O)c1C/C=C(/C)CCC=C(C)C	NO
CCC(CC)[C@H](NC(C)=O)[C@@H]1[C@H](O)[C@@H](C(=O)O)C[C@@H]1N=C(N)N	NO
O=C(O)/C(=C/c1c(C(=O)O)[nH]c2cc(Cl)cc(Cl)c12)c1ccccc1	NO
O=c1c(O)c(-c2ccccc2O)oc2cc(O)cc(O)c12	NO
CCC(C)SSC(C)CC (stereo unspecified)	NO
c1ccc2c(Cc3c[nH]c4ccccc34)c[nH]c2c1	YES
CC(=O)SC1CC2=CC(=O)CC[C@]2(C)C2CC[C@@]3(C)C(CC[C@@]34CCC(=O)O4)C12 (stereo partly specified)	NO

---

# test system: Luciferin 4-monooxygenase (Photinus pyralis) (UniProt P08659)
# experiment: Primary firefly luciferase (FLuc) qHTS assay for identification of artifact compounds. (AID 1845220); further: nearly all actives have a fitted effect of over 60% in size
# test parameters: purified firefly luciferase, luminescence, 5 min; at 54.1 µM (top of the series) unless noted; series mostly up to 54.1 µM
The source made the active and inactive calls. Calls follow the shape of the dose curve; as a rule, active = well fitted inhibition curve with a large enough effect; inconclusive = small, poorly fitted or top-dose-only effect; inactive = flat fitted curve, though single readings scatter.

compound	outcome
CCC(C)/C=C(C)/C=C/C1=CC2=C(Cl)C(=O)C(C)(OC(C)=O)C(=O)C2=CO1 (centres undefined)	inactive
C[C@@H](CN1CCC(n2c(=O)[nH]c3cc(Br)ccc32)CC1)NC(=O)[C@@H]1C[C@H]1c1ccccc1	inactive
Cc1ccc2c(c1)[C@H]1CN(C)CC[C@H]1N2C(=O)CSc1nnnn1-c1ccc(Cl)cc1	inactive

---

# test system: Nucleoprotein (Lymphocytic choriomeningitis virus (strain Armstrong))
# experiment: qHTS for Inhibitors of the Functional Ribonucleoprotein Complex (vRNP) of Lymphocytic Choriomeningitis Arenaviruses (LCMV): LCMV Primary Screen - GLuc reporter signal (AID 1347086); further: nearly all actives have a fitted effect of over 70% in size
# test parameters: LCMV minigenome vRNP cell assay, Gaussia luciferase reporter; series mostly up to 57.5 µM
Inconclusive results are not listed. Calls of active or inactive are those of the source. Calls follow the shape of the full dose curve.
Classes used: t (active), f (inactive)

compound	classification
SC1CCCC1	f
COc1ccc(C[C@@H](C)[C@@H](C)Cc2ccc(OC)c(OC)c2)cc1OC	t
OC[C@H]1O[C@@H](Oc2cc(O)cc(C=Cc3ccc(O)cc3)c2)[C@H](O)[C@@H](O)[C@H]1O	f
CC(C)CCOC(=O)c1ccccc1	f
CC1C2CC(CC2C2CCCC(O)C2)C1(C)C (stereo not given)	f
Cc1ccc2ccccc2n1	f
CC1CCN(CC[C@H]2CCCN2S(=O)(=O)c2cccc(O)c2)CC1	f
C[N+]1(CCCCC[N+]2(C)CCCC2)CCCC1	f
O=C(O)CCCCC(CCSCc1ccccc1)SCc1ccccc1 (stereo not given)	f
O=C(O)/C=C/C(O)c1ccc(Cl)cc1 (stereo not given)	f
O=P(O)(O)OC[C@H]1O[C@](O)(COP(=O)(O)O)[C@@H](O)[C@@H]1O	f
N[C@@H](CSS(=O)(=O)O)C(=O)O	f
CC(=O)O[C@H]1CC2(C)[C@@H](C[C@@H](O)[C@H]3[C@@]4(C)CC[C@@H](O)[C@@H](C)[C@@H]4CC[C@@]32C)C1=C(CCC=C(C)C)C(=O)O (stereo not given in full)	f
COc1cc2oc(=O)ccc2cc1O	f
CC1CC2CCCC(O)=C2C(=O)O1 (stereo not given)	f
COc1c(C)c2c(c(O)c1CC=C(C)CCC(=O)O)C(=O)OC2	t
Nc1nc2c(ncn2[C@@H]2O[C@H](COP(=O)(O)OP(=O)(O)OP(=O)(O)O)[C@@H](O)C2O)c(=O)[nH]1 (stereo not given in full)	f
N[C@H](C(=O)O)[C@H](O)C(=O)O	f
CCCCCCCCc1ccc(CCC(N)(CO)CO)cc1	f
C[N+]1([O-])CCC[C@@H]1c1cccnc1 (stereo not given in full)	f
CC1=C(O)C(=O)OC1C (stereo not given)	f
c1cnc2c(-c3nccc4c3[nH]c3ccccc34)cccc2c1	f
C[C@]12CC[C@H]3C(=CCc4cc(O)ccc43)[C@@H]1CCC2=O	f
Cc1[nH]c(C=C2C(=O)Nc3ccccc32)c(C)c1CCC(=O)O	t
CC/C=C\CCOC(C)=O	f

---

# experiment: qHTS Assay for Lipid Storage Modulators (AID 1519); further: on the % scale 0 is the no-effect control and ±100 the full control effect
# test parameters: Drosophila S3 cells, BODIPY lipid droplet/cell ratio, laser cytometry; at 57.5 µM (top of the series); cells loaded with oleic acid
Records with an inconclusive call do not appear. Active and inactive are the calls of the source. Calls come from the whole dose curve.
Parameter activity change, negative = inhibition: see the listing below.

molecule	activity change, negative = inhibition
CC1O[C@@H](O[C@@H]2C(O)C[C@H](O[C@@H]3C(O)C[C@@H](OC4CC[C@@]5(C)C6CC[C@]7(C)C(C8=CC(=O)OC8)CC[C@@]7(O)C6CC[C@@H]5C4)OC3C)OC2C)CC(O)[C@H]1O (some centres undefined)	3.23% (inactive)
CNCC/C=C\c1cccnc1	4.36% (inactive)
C=CCN1CC[C@@]23c4c5ccc(O)c4O[C@H]2/C(=N\N=C2/CC[C@@]4(O)[C@H]6Cc7ccc(O)c8c7[C@@]4(CCN6CC=C)[C@@H]2O8)CC[C@]3(O)[C@@H]1C5	1.28% (inactive)
CN1C(=O)CCS(=O)(=O)[C@H]1c1ccc(Cl)cc1	-2.49% (inactive)
Cc1o[nH]c(=O)c1C[C@@H](N)C(=O)O	-2.31% (inactive)
C[C@@]12CCC(OS(=O)(=O)O)C[C@@H]1CCC1C2CC[C@]2(C)C(=O)CCC12 (some centres undefined)	7.66% (inactive)
COc1ccc(-n2nc(C(F)(F)F)cc2-c2ccc(Cl)cc2)cc1	-0.483% (inactive)
NC(N)=NCCCCCCCCCCN=C(N)N	-3.22% (inactive)
N[C@H](C(=O)O)c1cc(=O)[nH]o1	3.47% (inactive)
